test system: human apolipoprotein B mRNA; assay: Inhibition of human apolipoprotein B mRNA levels in HepG2 cells, quantitative real-time PCR; type: cell-based; details: HepG2 cells, 37 nM oligonucleotide, normalized to untreated control, average of two experiments
quantity kind: % inhibition of apolipoprotein B mRNA levels (%)
// note: answer is a bare numeric in %

Sample records with % inhibition of apolipoprotein B mRNA levels:
308642 (GCCTCAGTCTGCTTCGCGCC; 3-10-7 MOE gapmer, phosphorothioate, chemistry not fully specified) [compound 308642] | 84
308658 (antisense AGGTTACCAGCCACATGCAG; 9-10-1 2'-MOE gapmer, phosphorothioate, chemistry not fully specified) [compound 308658] | 61

// below: % inhibition of apolipoprotein B mRNA levels requested for another substance
Entry 308638 (GCCTCAGTCTGCTTCGCACC; 1-10-9 MOE gapmer, phosphorothioate, chemistry not fully specified) [compound 308638] has what % inhibition of apolipoprotein B mRNA levels?
73
